# SYSTEM: NRAS G12C (Homo sapiens, UniProt P01111+P62937, G12C)
# Sequence (P01111 whole entry G12C): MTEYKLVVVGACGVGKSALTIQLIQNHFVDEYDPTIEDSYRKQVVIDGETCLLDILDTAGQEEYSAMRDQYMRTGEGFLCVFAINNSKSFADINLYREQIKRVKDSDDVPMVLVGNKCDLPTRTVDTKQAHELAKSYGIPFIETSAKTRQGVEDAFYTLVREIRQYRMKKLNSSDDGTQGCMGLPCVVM
# Sequence (P62937 whole entry): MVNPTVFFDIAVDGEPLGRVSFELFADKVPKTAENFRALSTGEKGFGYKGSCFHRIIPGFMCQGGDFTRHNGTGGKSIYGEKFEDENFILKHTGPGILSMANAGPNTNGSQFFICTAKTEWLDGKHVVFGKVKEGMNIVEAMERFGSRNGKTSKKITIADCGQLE
# TEST METHOD NOTES: Disruption of BRAF RBD interaction with Ras (FRET / MOA assay, with Cyclophilin A)
# Type: biochemical
# MEASUREMENT SETUP: NRAS G12C; read-out: NRAS G12C FRET data IC50
Let's look at some molecules and their measured IC50.

MOLECULE	SYSTEM	ATTRIBUTE MEASURED	ENDPOINT RESULT
CCn1c(-c2cccnc2[C@H](C)OC)c2c3cc(ccc31)-c1cc(O)cc(c1)C[C@H](NC(=O)[C@H](C(C)C)N(C)C(=O)[C@H]1C[C@H](O)C1)C(=O)N1CCC[C@H](N1)C(=O)OCC(C)(C)C2	NRAS G12C (Homo sapiens, UniProt P01111+P62937, G12C)	IC50	100 to 1000 nM
CCn1c(-c2cccnc2[C@H](C)OC)c2c3cc(ccc31)-c1cc(O)cc(c1)C[C@H](NS(=O)(=O)c1cn(C)c(C)n1)C(=O)N1CCC[C@H](N1)C(=O)OCC(C)(C)C2	NRAS G12C (Homo sapiens, UniProt P01111+P62937, G12C)	IC50	> 10000 nM
CCn1c(-c2cccnc2[C@H](C)OC)c2c3cc(ccc31)-c1csc(n1)C[C@H](NC(=O)[C@H](C(C)C)N(C)C(=O)N1CC(CN(C)C)(OC)C1)C(=O)N1CCC[C@H](N1)C(=O)OCC(C)(C)C2 (atropisomer, axis not shown)	NRAS G12C (Homo sapiens, UniProt P01111+P62937, G12C)	IC50	1000 to 10000 nM

Shifting focus to the molecule that follows.
Query string: Fill in reported IC50 for this entry: CCn1c(-c2cccnc2[C@H](C)OC)c2c3cc(ccc31)-c1csc(n1)C[C@H](NC(=O)[C@H](C(C)C)N(C)C(=O)O[C@H]1CCOC1)C(=O)N1CCC[C@H](N1)C(=O)OCC(C)(C)C2
Result string: 100 to 1000 nM
